- TARGET_UNDER_TEST: ABCG2 (Homo sapiens, UniProt Q9UNQ0)
- Sequence (Q9UNQ0 whole entry): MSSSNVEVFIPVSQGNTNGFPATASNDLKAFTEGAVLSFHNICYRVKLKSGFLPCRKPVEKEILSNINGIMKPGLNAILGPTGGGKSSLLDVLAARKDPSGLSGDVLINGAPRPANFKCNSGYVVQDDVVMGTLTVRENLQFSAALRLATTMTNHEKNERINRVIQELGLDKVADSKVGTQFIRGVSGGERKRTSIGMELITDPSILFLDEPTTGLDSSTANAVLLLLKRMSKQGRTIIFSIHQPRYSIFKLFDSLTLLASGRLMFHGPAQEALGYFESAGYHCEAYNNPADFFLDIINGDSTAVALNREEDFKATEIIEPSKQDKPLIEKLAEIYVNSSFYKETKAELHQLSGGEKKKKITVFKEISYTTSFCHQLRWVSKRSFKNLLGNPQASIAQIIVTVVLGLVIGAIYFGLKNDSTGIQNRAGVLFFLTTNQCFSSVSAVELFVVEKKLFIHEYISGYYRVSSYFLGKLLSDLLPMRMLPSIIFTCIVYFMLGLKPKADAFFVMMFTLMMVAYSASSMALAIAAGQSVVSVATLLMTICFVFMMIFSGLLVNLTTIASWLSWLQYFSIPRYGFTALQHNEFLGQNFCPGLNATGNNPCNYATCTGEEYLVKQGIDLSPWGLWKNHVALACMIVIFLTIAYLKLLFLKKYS
- MEASUREMENT_NOTES: cryo-EM structure ([…] Å); ATPase inhibition in nanodiscs; E1S transport inhibition in proteoliposomes
- Type: biochemical
ENDPOINT: IC50

IN: Sample CC(C)C[C@H]1c2[nH]c3cc(OC4CCCC4)ccc3c2C[C@H]2C(=O)N[C@@H](Cc3ccccc3)C(=O)N21 [compound 7, AZ99] — what was its IC50?
OUT: < 10 nM

Entry source: paper PMC11574751
